Entry source: ChEMBL document CHEMBL4680184

Property: selectivity ratio; scope: individual compounds
- MEASUREMENT_PROTOCOL: Therapeutic index, ratio of HC50 for human erythrocytes to MIC for Escherichia coli ATCC 25922
- Assay type: toxicity
- EXPERIMENTAL_PARAMETERS: read-out: TI
Kindly provide the number alone.

Illustrative cases are given below, each with its answer.
CCCCCCCCNC(=O)CN(NC(C)=O)C(=O)CN.Cl = 0.9
CCCCCCCCCCCCNC(=O)CN(NC(=O)CCCCCCC)C(=O)CN.Cl = 1.4
CCCNC(=O)CN(NC(C)=O)C(=O)CN.O=C(O)C(F)(F)F = 1.3
CCCCCCCCCCCC(=O)NN(CC(=O)NCCC)C(=O)CN.Cl = 2.6
CCCCCCCCCCCCNC(=O)CN(NC(=O)c1ccccc1)C(=O)CN.Cl = 49

[Q] Give me measured selectivity ratio, please, for this compound: CCCCCCCCCCCCCCCCCC(=O)NN(CC(=O)NCCCCCCCC)C(=O)CN.Cl
[A] 0.4

[Q] Give me measured selectivity ratio, please, for this compound: CCCCCCCCCCCC(=O)NN(CC(=O)NCCCCCCCC)C(=O)CN.Cl
[A] 3.8

[Q] Give me measured selectivity ratio, please, for this compound: CCCCCCCCCCCCCCCCCC(=O)NN(CC(=O)NCCCCCCCCCCCC)C(=O)CN.Cl
[A] 0.2

[Q] Give me measured selectivity ratio, please, for this compound: CCCNC(=O)CN(NC(=O)OCc1ccccc1)C(=O)CN.Cl
[A] 1.5

[Q] Give me measured selectivity ratio, please, for this compound: CCCCCCCCCCCCCCCCCCNC(=O)CN(NC(C)=O)C(=O)CN.Cl
[A] 0.5

[Q] Give me measured selectivity ratio, please, for this compound: CCCCCCCCCCCCCCCCCCNC(=O)CN(NC(=O)OCc1ccccc1)C(=O)CN.Cl
[A] 0.5

[Q] Give me measured selectivity ratio, please, for this compound: CCCCCCCCNC(=O)CN(NC(=O)CCCCCCC)C(=O)CN.Cl
[A] 8.2
